- PROTOCOL DESCRIPTION: Half life was estimated from the elimination phase of the blood concentration curves after peroral administration
- Type: ADME, organism-based
- CONDITIONS USED: po
REPORTED METRIC: half-life
Answer format: value, then unit.

Inquiry: Need half-life, item "CCCN1CCC[C@@H](c2cccc(OS(=O)(=O)C(F)(F)F)c2)C1"
Reply text: 3.5 h

---

- STUDY TARGET: Sigma non-opioid intracellular receptor 1 (Rattus norvegicus)
- Sequence (Q9R0C9 whole entry): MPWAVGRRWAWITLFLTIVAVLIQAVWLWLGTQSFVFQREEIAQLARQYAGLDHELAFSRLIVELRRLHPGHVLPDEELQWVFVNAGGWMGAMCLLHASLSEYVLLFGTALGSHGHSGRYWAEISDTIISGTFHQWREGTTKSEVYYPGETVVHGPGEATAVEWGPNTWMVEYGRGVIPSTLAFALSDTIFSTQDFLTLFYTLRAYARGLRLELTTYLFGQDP
- PROTOCOL DESCRIPTION: Binding affinity for sigma receptor using 2 nM of [3H]DTG as radioligand, in membranes from brain minus cerebellum
- Assay type: tissue-based
REPORTED METRIC: pIC50
One number for each entry, as −log10 of the molar value.

Inquiry: Look at this molecule and give its reported pIC50. CCCN1CCCC(c2cccc(C#N)c2)C1 (single isomer, unassigned; (+))
Reply text: 6.28
